- Tested on: MCF-7 (human breast cancer cells)
- PROTOCOL DESCRIPTION: MTT cancer cell growth inhibition
- Type: cell-based
- CONDITION INFO: Homo sapiens, MCF7, 72 h, MCF-7 cells, 72 hours incubation, read-out: GI50 MCF
Consider the following compounds; for each one, report its GI50.
Expressed in nM, but write only the number.

Which GI50 reading was recorded for the compound "C/C=C1\NC(=O)c2ccc(SC)c(n2)CNC(=O)C[C@@H](/C=C/CCSC(=O)CCCCCCC)OC(=O)[C@H](C(C)C)NC1=O" ?
60

Which GI50 reading was recorded for the compound "C/C=C1\NC(=O)c2nc(ccc2SC)CNC(=O)C[C@@H](/C=C/CCSC(C)=O)OC(=O)[C@H](Cc2cccc3ccccc23)NC1=O" ?
110

Which GI50 reading was recorded for the compound "C/C=C1\NC(=O)c2cc(SCCC)cc(n2)CNC(=O)C[C@@H](/C=C/CCSC(=O)CCCCCCC)OC(=O)[C@H](CC)NC1=O" ?
20

Which GI50 reading was recorded for the compound "C/C=C1\NC(=O)c2ccc(SC)c(n2)CNC(=O)C[C@@H](/C=C/CCSC=O)OC(=O)[C@H](C(C)C)NC1=O" ?
60

Which GI50 reading was recorded for the compound "C/C=C1\NC(=O)c2nc(ccc2SC)CNC(=O)C[C@@H](/C=C/CCS)OC(=O)[C@H](C(C)C)NC1=O" ?
20

Which GI50 reading was recorded for the compound "C/C=C1\NC(=O)c2nc(ccc2SC)CNC(=O)C[C@@H](/C=C/CCSC(C)=O)OC(=O)[C@H](Cc2ccc(O)cc2)NC1=O" ?
40
